meta.source: patent US7569729B2

# experiment: Stability test (40° C., five days), impurities by HPLC
# Assay type: physicochemical
# measurement.conditions: Time zero, Hydrochloride
# Method: At lower temperatures, e.g., 40° C., the stability of Atomoxetine Hydrochloride samples, having a water solution pH test of less than 4 are compromised, while Atomoxetine Hydrochloride samples, having a water solution pH test of greater than 4, are stable.
Counter-ions that a name gives are not always drawn.
measured.quantity: Impurity (c) (HPLC A %)

> print(dat)
                                   molecule        measured.quantity  recorded.result
1  CNCCC(Oc1ccccc1C)c1ccccc1 (stereo not shown) [Sample 7, Atomoxetine Hydrochloride]  Impurity (c) (HPLC A %)  0.018% HPLC A %
2  CNCCC(Oc1ccccc1C)c1ccccc1 (stereo not shown) [Sample 10, Atomoxetine Hydrochloride]  Impurity (c) (HPLC A %)     not detected
3  CNCCC(Oc1ccccc1C)c1ccccc1 (stereo not shown) [Sample 9, Atomoxetine Hydrochloride]  Impurity (c) (HPLC A %)     not detected
4  CNCCC(Oc1ccccc1C)c1ccccc1 (stereo not shown) [Sample 8, Atomoxetine Hydrochloride]  Impurity (c) (HPLC A %)     not detected
